System: Flp-In T-REx 293 cells inducibly expressing delta-E Torsin1a
Assay: Cytotoxicity (cell count, cellular morphology) in the Torsin1a assay cell line
Type: cell-based, human
Conditions: curve class per Inglese et al. 2006
Description: In order to test this model directly, the delta-E Torsin1a cell line was treated with compounds targeting the eIF2-alpha signaling pathway (FIG. 2). […] Efficacy is calculated as the magnitude of the pathology correction relative to the mutant Torsin1a pathology. […]
Where a name gives a salt, the structure may show the parent alone.
The following compounds are listed with their measured Cytotox CC-v2 (dose response Curve Class) values.

* Cc1c(O)cccc1C(=O)N[C@@H](CSc1ccccc1)[C@H](O)CN1C[C@H]2CCCC[C@H]2C[C@H]1C(=O)NC(C)(C)C | −1.1
* Cc1cccc(C)c1OCC(=O)NC(CCC(Cc1ccccc1)NC(=O)C(C(C)C)N1CCCNC1=O)Cc1ccccc1 (centres unmarked) [Des-hydroxy Lopinavir] | −2.2
* COC(=O)N[C@H](C(=O)N[C@@H](Cc1ccccc1)[C@@H](O)CN(Cc1ccc(-c2ccccn2)cc1)NC(=O)[C@@H](NC(=O)OC)C(C)(C)C)C(C)(C)C | 4
* CS(=O)(=O)O.Cc1c(O)cccc1C(=O)N[C@@H](CSc1ccccc1)[C@H](O)CN1C[C@H]2CCCC[C@H]2C[C@H]1C(=O)NC(C)(C)C.O [Nelfinavir mesylae hydrate] | −1.1
* CC(C)(C)NC(=O)[C@@H]1CN(Cc2cccnc2)CCN1C[C@@H](O)C[C@@H](Cc1ccccc1)C(=O)N[C@H]1c2ccccc2C[C@H]1O [Indinavir sulfate] | −3

Challenge: Look up Flp-In T-REx 293 cells inducibly expressing delta-E Torsin1a data: Cytotox CC-v2 (dose response Curve Class) of "CC(C)CN(C[C@@H](O)[C@H](Cc1ccccc1)NC(=O)O[C@H]1CCOC1)S(=O)(=O)c1ccc(N)cc1" , then report it.
Response given: 4

Challenge: Print Flp-In T-REx 293 cells inducibly expressing delta-E Torsin1a Cytotox CC-v2 (dose response Curve Class) for "CC(C)c1nc(CN(C)C(=O)N[C@H](C(=O)N[C@@H](Cc2ccccc2)C[C@H](O)[C@H](Cc2ccccc2)NC(=O)OCc2cncs2)C(C)C)cs1" .
Response given: 4

Challenge: Given "Cc1cccc(C)c1OCC(=O)N[C@@H](Cc1ccccc1)[C@@H](O)C[C@H](Cc1ccccc1)NC(=O)[C@H](C(C)C)N1CCCNC1=O" , report its Cytotox CC-v2 (dose response Curve Class) on Flp-In T-REx 293 cells inducibly expressing delta-E Torsin1a.
Response given: −3

* * *

Test system: Flp-In T-REx 293 cells inducibly expressing delta-E Torsin1a
Test: Cytotoxicity (cell count, cellular morphology) in the Torsin1a assay cell line
Type: cell-based, human
Counter-ions that a name gives are not always drawn.
measured.endpoint: Cytotox Max Resp (%)
Please respond with the number in % and leave the unit unwritten.

* CS(=O)(=O)O.Cc1c(O)cccc1C(=O)N[C@@H](CSc1ccccc1)[C@H](O)CN1C[C@H]2CCCC[C@H]2C[C@H]1C(=O)NC(C)(C)C.O [Nelfinavir mesylae hydrate] | −95.64
* Cc1c(O)cccc1C(=O)N[C@@H](CSc1ccccc1)[C@H](O)CN1C[C@H]2CCCC[C@H]2C[C@H]1C(=O)NC(C)(C)C [Viracept] | −97.72

Challenge: Supply recorded Cytotox Max Resp for CC(C)(C)NC(=O)[C@@H]1CN(Cc2cccnc2)CCN1C[C@@H](O)C[C@@H](Cc1ccccc1)C(=O)N[C@H]1c2ccccc2C[C@H]1O [Indinavir sulfate] here.
Response given: −67.80

Challenge: State its Cytotox Max Resp: Cc1cccc(C)c1OCC(=O)NC(CCC(Cc1ccccc1)NC(=O)C(C(C)C)N1CCCNC1=O)Cc1ccccc1 (centres unmarked) [Des-hydroxy Lopinavir]
Response given: −66.67

Challenge: Please list Cytotox Max Resp recorded for the compound Cc1cccc(C)c1OCC(=O)N[C@@H](Cc1ccccc1)[C@@H](O)C[C@H](Cc1ccccc1)NC(=O)[C@H](C(C)C)N1CCCNC1=O [Lopinavir]
Response given: −55.19

* * *

Tested on: Flp-In T-REx 293 cells inducibly expressing delta-E Torsin1a
Assay: Cytotoxicity (cell count, cellular morphology) in the Torsin1a assay cell line
Format: cell-based, human
Hi! Just check whether Cytotox Efficacy is below -80%. Below gives Satisfied, equal or above gives Not satisfied.

* Cc1cccc(C)c1OCC(=O)N[C@@H](Cc1ccccc1)[C@@H](O)C[C@H](Cc1ccccc1)NC(=O)[C@H](C(C)C)N1CCCNC1=O [Lopinavir] | Not satisfied
* CS(=O)(=O)O.Cc1c(O)cccc1C(=O)N[C@@H](CSc1ccccc1)[C@H](O)CN1C[C@H]2CCCC[C@H]2C[C@H]1C(=O)NC(C)(C)C.O [Nelfinavir mesylae hydrate] | Satisfied

Switching to the query record.
Challenge: Would you kindly verify if Cytotox Efficacy of Cc1c(O)cccc1C(=O)N[C@@H](CSc1ccccc1)[C@H](O)CN1C[C@H]2CCCC[C@H]2C[C@H]1C(=O)NC(C)(C)C [Viracept] is strictly less than -80%?
Response given: Satisfied
